# assay comment: in vivo
# recorded conditions: male, C57BL/6, mouse, po, 100 mg/kg
assay endpoint: Cmax (µM)
API: value field is a number in µM; no unit string.

# Cmax lookup, item CCON=C(c1ccc2cc(OC)ccc2c1)C1CCCN(C2CCC(O)CC2)C1 (stereo not shown) 7.07

* * *

# Test system: SARS-CoV-2 clinical isolate VIC001
# assay comment: microbe, parasite or virus in culture
# Type: cell-based
# recorded conditions: Severe acute respiratory syndrome coronavirus 2, Vero, 144 h, read-out: EC50 Replicate 2
assay endpoint: pEC50
// pEC50 is dimensionless: -log10 of concentration (M)

# pEC50 lookup, item CCON=C(c1ccc2cc(OC)ccc2c1)C1CCCN(C2CCC(O)CC2)C1 (stereo not shown) [WEHI-P8] 6.48

* * *

# system under test: CYP2C19 (Homo sapiens, UniProt P33261)
# Sequence (P33261 whole entry): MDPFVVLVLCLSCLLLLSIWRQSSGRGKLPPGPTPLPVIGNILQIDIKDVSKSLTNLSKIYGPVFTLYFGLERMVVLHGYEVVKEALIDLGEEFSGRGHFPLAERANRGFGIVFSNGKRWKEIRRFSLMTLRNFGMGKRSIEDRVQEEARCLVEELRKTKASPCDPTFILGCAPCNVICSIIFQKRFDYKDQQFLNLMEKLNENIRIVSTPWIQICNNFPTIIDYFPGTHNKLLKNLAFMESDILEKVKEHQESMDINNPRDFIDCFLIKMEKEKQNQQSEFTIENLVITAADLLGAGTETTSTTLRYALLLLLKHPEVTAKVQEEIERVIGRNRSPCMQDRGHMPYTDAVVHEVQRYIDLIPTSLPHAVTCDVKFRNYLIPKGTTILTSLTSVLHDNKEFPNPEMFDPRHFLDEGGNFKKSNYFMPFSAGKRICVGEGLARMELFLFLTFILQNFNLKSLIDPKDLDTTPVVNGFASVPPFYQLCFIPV
pIC50: −log10 of the molar value.
assay endpoint: pIC50

Field: pIC50 (CYP2C19 (Homo sapiens, UniProt P33261)). Entry: CCON=C(c1ccc2cc(OC)ccc2c1)C1CCCN(C2CCC(O)CC2)C1 (stereo not shown) [WEHI-P8] < 4.70

* * *

# System: CYP3A4/5
# assay comment: in vitro
# recorded conditions: human, microsomes, Time dependent CYP3A4/5 % inhibition at 20 µM
assay endpoint: inhibition at 20 µM (%)
API: value field is a number in %; no unit string.

# inhibition at 20 µM lookup, item CCON=C(c1ccc2cc(OC)ccc2c1)C1CCCN(C2CCC(O)CC2)C1 (stereo not shown) [WEHI-P8] 25

* * *

# assay comment: physchem
# recorded conditions: pH 2, aqueous buffer, kinetic from dmso stock
assay endpoint: solubility kinetic

# solubility kinetic lookup, item CCON=C(c1ccc2cc(OC)ccc2c1)C1CCCN(C2CCC(O)CC2)C1 (stereo not shown) [WEHI-P8] > 320 µM

* * *

# assay comment: in vivo
# recorded conditions: male, C57BL/6, mouse, po, 100 mg/kg
assay endpoint: AUC(0-t) (µM·h)
API: value field is a number in µM·h; no unit string.

# AUC(0-t) lookup, item CCON=C(c1ccc2cc(OC)ccc2c1)C1CCCN(C2CCC(O)CC2)C1 (stereo not shown) 72.3

* * *

# assay comment: in vivo
# recorded conditions: male, C57BL/6, mouse, po, 100 mg/kg
assay endpoint: AUC(0-inf)

# AUC(0-inf) lookup, item CCON=C(c1ccc2cc(OC)ccc2c1)C1CCCN(C2CCC(O)CC2)C1 (stereo not shown) [WEHI-P8] ~108 µM·h

* * *

# Test system: CYP3A4/5
# assay comment: in vitro
# recorded conditions: human, microsomes, pH 7.4, CYP3A4/5 IC50
assay endpoint: IC50 (nM)
API: value field is a number in nM; no unit string.

Field: IC50 (CYP3A4/5). Entry: CC(=O)N1CCN(c2ccc(OCC3COC(Cn4ccnc4)(c4ccc(Cl)cc4Cl)O3)cc2)CC1 (centres unmarked) [Ketoconazole, reference compound] 10

* * *

# assay comment: in vivo
# recorded conditions: male, C57BL/6, mouse, po, 100 mg/kg, Apparent t1/2
assay endpoint: half-life (h)
API: value field is a number in h; no unit string.

# half-life lookup, item CCON=C(c1ccc2cc(OC)ccc2c1)C1CCCN(C2CCC(O)CC2)C1 (stereo not shown) 14

* * *

# assay comment: in vitro
# recorded conditions: human, hepatocytes, pH 7.4
assay endpoint: hepatocyte CLint (µL/min/1e6 cells)
API: value field is a number in µL/min/1e6 cells; no unit string.

# hepatocyte CLint lookup, item CCON=C(c1ccc2cc(OC)ccc2c1)C1CCCN(C2CCC(O)CC2)C1 (stereo not shown) 10

* * *

Record: IC50 reported on UniProt:P0C6X7.
API: value field is a number in nM; no unit string.

Field: IC50 (UniProt:P0C6X7). Entry: CO/N=C(/c1ccc2cc(OC)ccc2c1)[C@@H]1CCCN([C@H]2CC[C@@H](O)CC2)C1 [WEHI-P4] 22

***
Field: IC50 (UniProt:P0C6X7). Entry: CO/N=C(/c1ccc2cc(OC)ccc2c1)[C@@H]1CCCN([C@H]2CC[C@@H](c3cc[nH]n3)CC2)C1 [WEHI-P70] 94

* * *

# assay comment: in vitro
# recorded conditions: mouse, microsomes, pH 7.4
assay endpoint: microsomal CLint (µL/min/mg)
API: value field is a number in µL/min/mg; no unit string.

# microsomal CLint lookup, item CCON=C(c1ccc2cc(OC)ccc2c1)C1CCCN(C2CCC(O)CC2)C1 (stereo not shown) [WEHI-P8] 33.4

* * *

Record: IC50 reported on CYP2B6 (Homo sapiens, UniProt P20813).
Sequence (P20813 whole entry): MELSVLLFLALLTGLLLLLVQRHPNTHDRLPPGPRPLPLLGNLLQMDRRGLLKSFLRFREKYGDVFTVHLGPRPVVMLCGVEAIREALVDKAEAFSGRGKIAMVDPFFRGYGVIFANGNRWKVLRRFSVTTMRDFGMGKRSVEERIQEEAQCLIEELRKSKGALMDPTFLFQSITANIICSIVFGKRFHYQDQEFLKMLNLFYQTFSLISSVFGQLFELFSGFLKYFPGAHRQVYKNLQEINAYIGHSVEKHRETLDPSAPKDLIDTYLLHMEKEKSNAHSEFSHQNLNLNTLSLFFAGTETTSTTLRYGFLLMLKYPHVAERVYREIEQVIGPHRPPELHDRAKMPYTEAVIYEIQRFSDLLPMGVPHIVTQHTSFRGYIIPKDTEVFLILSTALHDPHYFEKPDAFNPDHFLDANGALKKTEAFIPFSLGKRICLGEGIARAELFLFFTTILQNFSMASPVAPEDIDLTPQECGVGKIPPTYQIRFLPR

Field: IC50 (CYP2B6 (Homo sapiens, UniProt P20813)). Entry: CCON=C(c1ccc2cc(OC)ccc2c1)C1CCCN(C2CCC(O)CC2)C1 (centres unmarked) [WEHI-P8] > 20 µM

Here is the next item to consider.
Field: IC50 (CYP2B6 (Homo sapiens, UniProt P20813)). Entry: CC(C)(c1ccccc1)N1CCCCC1 [2-phenyl-2-(1-piperidinyl) propane, reference compound] 8.9 µM

* * *

# Test system: SARS-CoV-2 clinical isolate VIC001
# assay comment: microbe, parasite or virus in culture
# Type: cell-based
# recorded conditions: read-out: Antiviral EC50 (plaque assay)
assay endpoint: pEC50
// pEC50 is dimensionless: -log10 of concentration (M)

# pEC50 lookup, item CO/N=C(/c1ccc2cc(OC)ccc2c1)[C@@H]1CCCN([C@H]2CC[C@@H](O)CC2)C1 6.39

* * *

# assay comment: in vitro
# recorded conditions: human, hepatocytes, pH 7.4
assay endpoint: half-life (min)
API: value field is a number in min; no unit string.

# half-life lookup, item CCON=C(c1ccc2cc(OC)ccc2c1)C1CCCN(C2CCC(O)CC2)C1 (stereo not shown) 139

* * *

# System: CYP3A4/5
# assay comment: in vitro
# recorded conditions: human, microsomes, Time dependent CYP3A4/5 IC50 - NADPH
assay endpoint: IC50 (nM)
API: value field is a number in nM; no unit string.

# IC50 lookup, item CC(=O)N1CCN(c2ccc(OCC3COC(Cn4ccnc4)(c4ccc(Cl)cc4Cl)O3)cc2)CC1 (centres unmarked) [Ketoconazole, reference compound] 13

* * *

# system under test: SARS-CoV-2 PLpro (Severe acute respiratory syndrome coronavirus 2)
# assay comment: biochemical
# recorded conditions: IC50 (UbRh) SARS-CoV-2 PLpro
assay endpoint: IC50 (µM)
API: value field is a number in µM; no unit string.

Would you please look over these solved cases?
# IC50 lookup, item CCON=C(c1ccc2cc(OC)ccc2c1)C1CCCN(C2CCC(O)CC2)C1 (stereo not shown) [WEHI-P8] 0.012

# IC50 lookup, item CO/N=C(/c1ccc2cc(OC)ccc2c1)[C@@H]1CCCN([C@H]2CC[C@@H](c3cc[nH]n3)CC2)C1 [WEHI-P70] 0.098

# IC50 lookup, item CO/N=C(/c1ccc2cc(OC)ccc2c1)C1CCCN(C2CCCC2)C1 (stereo not shown) [WEHI-P2] 0.397

Here is the next item to consider.
# IC50 lookup, item COc1ccc2cc(C(=O)C3CCCN(C4CCCC4)C3)ccc2c1 (stereo not shown) [WEHI-P1] 2.6

* * *

# system under test: SARS-CoV-2 PLpro (Severe acute respiratory syndrome coronavirus 2, UniProt P0DTD1)
# assay comment: cell-based
Reported EC50 values are given for each entry in this list.
API: value field is a number in nM; no unit string.

Would you please look over these solved cases?
# EC50 lookup, item CO/N=C(/c1ccc2cc(OC)ccc2c1)[C@@H]1CCCN([C@H]2CC[C@@H](O)CC2)C1 [WEHI-P4] 310

# EC50 lookup, item CCON=C(c1ccc2cc(OC)ccc2c1)C1CCCN(C2CCC(O)CC2)C1 (stereo not shown) [WEHI-P8] 298

***
# EC50 lookup, item CO/N=C(/c1ccc2cc(OC)ccc2c1)C1CCCN(C2CCCC2)C1 (stereo not shown) [WEHI-P2] 11000

* * *

# assay comment: physchem
# recorded conditions: pH 6.5, aqueous buffer, kinetic from dmso stock
assay endpoint: solubility kinetic

# solubility kinetic lookup, item CCON=C(c1ccc2cc(OC)ccc2c1)C1CCCN(C2CCC(O)CC2)C1 (stereo not shown) [WEHI-P8] 160 to 320 µM

* * *

# system under test: CYP2D6 (Homo sapiens, UniProt P10635)
# Sequence (P10635 whole entry): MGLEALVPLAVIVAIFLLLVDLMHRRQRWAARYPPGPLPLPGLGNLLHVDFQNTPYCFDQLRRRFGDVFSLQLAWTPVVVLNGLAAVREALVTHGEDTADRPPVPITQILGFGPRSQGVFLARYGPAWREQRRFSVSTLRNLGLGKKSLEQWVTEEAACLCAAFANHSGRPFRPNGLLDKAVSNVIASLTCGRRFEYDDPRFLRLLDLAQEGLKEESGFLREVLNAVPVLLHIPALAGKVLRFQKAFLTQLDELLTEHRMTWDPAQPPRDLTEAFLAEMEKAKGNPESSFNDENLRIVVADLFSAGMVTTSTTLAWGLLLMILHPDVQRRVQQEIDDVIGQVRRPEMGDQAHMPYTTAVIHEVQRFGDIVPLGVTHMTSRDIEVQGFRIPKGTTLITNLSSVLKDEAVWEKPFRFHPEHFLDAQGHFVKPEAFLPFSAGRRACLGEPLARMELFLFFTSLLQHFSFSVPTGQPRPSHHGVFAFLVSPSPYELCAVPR
assay endpoint: pIC50
// pIC50 is dimensionless: -log10 of concentration (M)

# pIC50 lookup, item CCON=C(c1ccc2cc(OC)ccc2c1)C1CCCN(C2CCC(O)CC2)C1 (stereo not shown) [WEHI-P8] 4.86

* * *

Reported IC50 values are given for each entry in this list.
# system under test: UniProt P0C6X5
# Sequence (P0C6X5 1578-1876 limits assumed): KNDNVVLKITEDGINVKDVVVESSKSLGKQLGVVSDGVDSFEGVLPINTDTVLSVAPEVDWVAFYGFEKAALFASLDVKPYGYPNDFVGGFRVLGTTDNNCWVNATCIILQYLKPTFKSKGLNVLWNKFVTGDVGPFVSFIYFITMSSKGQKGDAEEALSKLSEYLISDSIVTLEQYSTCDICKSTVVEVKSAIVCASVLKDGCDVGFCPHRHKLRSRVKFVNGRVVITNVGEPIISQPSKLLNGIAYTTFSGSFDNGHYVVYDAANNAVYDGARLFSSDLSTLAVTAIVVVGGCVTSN
API: value field is a number in µM; no unit string.

# IC50 lookup, item CO/N=C(/c1ccc2cc(OC)ccc2c1)[C@@H]1CCCN([C@H]2CC[C@@H](O)CC2)C1 [WEHI-P4] 52

Here is the next item to consider.
# IC50 lookup, item CO/N=C(/c1ccc2cc(OC)ccc2c1)[C@@H]1CCCN([C@H]2CC[C@@H](c3cc[nH]n3)CC2)C1 [WEHI-P70] 0.648

Origin of measurements: paper PMC11969009
